Test system: LG0567-F671-PDC complex spheroids viability;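 also: spheroids exposed to compound for seven days before readout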
Assay: Anticancer human tumor LG0567-F671-PDC patient-derived lung adenocarcinoma cell line growth inhibition [RAS]
Settings: second compound 0.1 µM; first compound 0.0316 µM; active compounds read low
viability, T/C strictly under 10% means label 1; at 10% or over means label 0.

Request: Just wondering, is viability, T/C of CCC(CC)c1cc(NC2CCC(N)C2)n2nccc2n1 (configuration not stated) + C#Cc1c(F)ccc2cc(O)cc(-c3ncc4c(N5CC6CCC(C5)N6)nc(OCC56CCCN5CC(F)C6)nc4c3F)c12 below 10%?
Result: label 0

Request: Quick check: viability, T/C of Nc1ccn(C2OC(CO)C(O)C2(F)F)c(=O)n1 (configuration not stated) + C=CC(=O)N1CCN(c2nc(OCC3CCCN3C)nc3c(F)c(-c4nc(N)cc(C)c4C(F)(F)F)c(Cl)cc23)C(C)C1 under 10%?
Result: label 0

Request: State whether 10% exceeds viability, T/C recorded for CC1(O)CCCC1n1c(=O)c(C(F)F)cc2cnc(NC3CCN(S(C)(=O)=O)CC3)nc21 (configuration not stated) + C=CC(=O)N1CCN(c2nc(OCC3CCCN3C)nc3c(F)c(-c4nc(N)cc(C)c4C(F)(F)F)c(Cl)cc23)C(C)C1 .
Result: label 0

Request: # check: viability, T/C < 10% for CC(C)n1nc(-c2ccc3oc(N)nc3c2)c2c(N)ncnc21 + C=CC(=O)N1CCN(c2nc(OCC3CCCN3C)nc3c(F)c(-c4nc(N)cc(C)c4C(F)(F)F)c(Cl)cc23)C(C)C1
Result: label 1

Request: Determine whether this molecule shows viability, T/C lower than 10% (ties excluded): Nc1ccn(C2OC(CO)C(O)C2(F)F)c(=O)n1 (configuration not stated) + C#Cc1c(F)ccc2cc(O)cc(-c3ncc4c(N5CC6CCC(C5)N6)nc(OCC56CCCN5CC(F)C6)nc4c3F)c12
Result: label 0

Request: Is the reported viability, T/C for Cc1nc(N2CCC3(CC2)COC(C)C3N)c(CO)nc1Sc1ccnc(N)c1Cl (configuration not stated) + C=CC(=O)N1CCN(c2nc(OCC3CCCN3C)nc3c(F)c(-c4nc(N)cc(C)c4C(F)(F)F)c(Cl)cc23)C(C)C1 strictly below 10%?
Result: label 1

Request: Bench note: check whether CC(=O)OC12COC1CC(O)C1(C)C(=O)C(O)C3=C(C)C(OC(=O)C(O)C(NC(=O)OC(C)(C)C)c4ccccc4)CC(O)(C(OC(=O)c4ccccc4)C21)C3(C)C (configuration not stated) + C=CC(=O)N1CCN(c2nc(OCC3CCCN3C)nc3c(F)c(-c4nc(N)cc(C)c4C(F)(F)F)c(Cl)cc23)C(C)C1 shows viability, T/C below 10%
Result: label 0

Request: Does the reported viability, T/C of the following molecule sit strictly below 10%? C[C@@H](NC(=O)c1ncnc(N)c1Cl)c1ncc(C(=O)Nc2cc(C(F)(F)F)c(Cl)cn2)s1 + C#Cc1c(F)ccc2cc(O)cc(-c3ncc4c(N5CC6CCC(C5)N6)nc(OCC56CCCN5CC(F)C6)nc4c3F)c12
Result: label 0

Request: A record lists Cc1nc(N2CCC3(CC2)COC(C)C3N)c(CO)nc1Sc1ccnc(N)c1Cl (configuration not stated) + C#Cc1c(F)ccc2cc(O)cc(-c3ncc4c(N5CC6CCC(C5)N6)nc(OCC56CCCN5CC(F)C6)nc4c3F)c12 . Is its viability, T/C below 10%?
Result: label 0

Request: Hi there! Is viability, T/C for C=CC(=O)N1CCN(c2nc(OCC3CCCN3C)nc3c(F)c(-c4nc(N)cc(C)c4C(F)(F)F)c(Cl)cc23)C(C)C1 (configuration not stated) + C#Cc1c(F)ccc2cc(O)cc(-c3ncc4c(N5CC6CCC(C5)N6)nc(OCC56CCCN5CC(F)C6)nc4c3F)c12 below 10%, do you know?
Result: label 1

Request: viability, T/C strictly < 10% for this molecule? CCN1CCN(Cc2ccc(Nc3ncc(F)c(-c4cc(F)c5nc(C)n(C(C)C)c5c4)n3)nc2)CC1 + C#Cc1c(F)ccc2cc(O)cc(-c3ncc4c(N5CC6CCC(C5)N6)nc(OCC56CCCN5CC(F)C6)nc4c3F)c12
Result: label 0

Request: Strictly below 10%: is that where viability, T/C of CC(Nc1ccc2c(c1)OCCn1cc(N3C(=O)OCC3C(F)F)nc1-2)C(N)=O (configuration not stated) + C=CC(=O)N1CCN(c2nc(OCC3CCCN3C)nc3c(F)c(-c4nc(N)cc(C)c4C(F)(F)F)c(Cl)cc23)C(C)C1 sits?
Result: label 0

Request: API: query returns whether the molecule falls strictly under 10% in viability, T/C. Query: CC(Nc1ccc2c(c1)OCCn1cc(N3C(=O)OCC3C(F)F)nc1-2)C(N)=O (configuration not stated) + C#Cc1c(F)ccc2cc(O)cc(-c3ncc4c(N5CC6CCC(C5)N6)nc(OCC56CCCN5CC(F)C6)nc4c3F)c12
Result: label 0

Request: For O=C(c1ccc(F)c(F)c1Nc1ccc(I)cc1F)N1CC(O)([C@@H]2CCCCN2)C1 + C=CC(=O)N1CCN(c2nc(OCC3CCCN3C)nc3c(F)c(-c4nc(N)cc(C)c4C(F)(F)F)c(Cl)cc23)C(C)C1 , is the recorded viability, T/C below the cut-off of 10%?
Result: label 1

Request: Field: below-cutoff. Rule: recorded viability, T/C strictly less than 10%. Subject: CC(C)n1nc(-c2ccc3oc(N)nc3c2)c2c(N)ncnc21 + C#Cc1c(F)ccc2cc(O)cc(-c3ncc4c(N5CC6CCC(C5)N6)nc(OCC56CCCN5CC(F)C6)nc4c3F)c12
Result: label 0

Request: Does this molecule meet the criterion viability, T/C < 10%? CCN1CCN(Cc2ccc(Nc3ncc(F)c(-c4cc(F)c5nc(C)n(C(C)C)c5c4)n3)nc2)CC1 + C=CC(=O)N1CCN(c2nc(OCC3CCCN3C)nc3c(F)c(-c4nc(N)cc(C)c4C(F)(F)F)c(Cl)cc23)C(C)C1
Result: label 0
